Tgt: Lanosterol 14-alpha demethylase (Candida albicans (strain SC5314 / ATCC MYA-2876) (Yeast))
Sequence (P10613 whole entry): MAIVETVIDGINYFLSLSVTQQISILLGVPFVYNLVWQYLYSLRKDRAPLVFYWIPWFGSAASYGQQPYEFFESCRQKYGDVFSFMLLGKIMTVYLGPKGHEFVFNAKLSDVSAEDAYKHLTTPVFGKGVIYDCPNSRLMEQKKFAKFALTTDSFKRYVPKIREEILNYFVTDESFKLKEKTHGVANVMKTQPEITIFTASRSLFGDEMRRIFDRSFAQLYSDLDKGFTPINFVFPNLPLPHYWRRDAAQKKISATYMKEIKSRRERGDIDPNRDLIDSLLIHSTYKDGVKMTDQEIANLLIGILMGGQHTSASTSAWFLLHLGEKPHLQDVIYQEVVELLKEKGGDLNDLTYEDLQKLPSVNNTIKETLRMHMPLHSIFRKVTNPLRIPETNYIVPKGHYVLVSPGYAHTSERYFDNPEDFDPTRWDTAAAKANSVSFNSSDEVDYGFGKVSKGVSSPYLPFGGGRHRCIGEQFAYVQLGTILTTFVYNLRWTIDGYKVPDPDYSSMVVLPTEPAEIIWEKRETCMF
Assay notes: Binding affinity to Candida albicans CYP51
pKd: −log10 of the molar value.
Measure name: pKd

Prompt: I would be grateful if you could share the reported pKd for O[C@@](Cn1cnnn1)(c1ccc(F)cc1F)C(F)(F)c1ccc(-c2ccc(OCC(F)(F)F)cc2)cn1 [OTESECONAZOLE] .
Completion: ≥ 7.41

----------
Assay notes: Selectivity index, ratio of IC50 for human hepatocytes CYP3A4 to MIC for Trichophyton rubrum
Design: species or system Hepatocyte
Measure name: Selectivity Index
Please state the value as a number alone, without comment.

Prompt: I would be grateful if you could share the reported Selectivity Index for O[C@@](Cn1cnnn1)(c1ccc(F)cc1F)C(F)(F)c1ccc(-c2ccc(Cl)cc2)cn1 .
Completion: 9000

Prompt: Next up: O[C@@](Cn1cnnn1)(c1ccc(F)cc1F)C(F)(F)c1ccc(-c2ccc(C(F)(F)F)cc2)cn1
Completion: 27000

----------
Assay notes: Half life in po dosed human
Assay type: ADME, organism-based
Applied conditions: in vivo
Measure name: half-life

Prompt: I would be grateful if you could share the reported half-life for O[C@@](Cn1cnnn1)(c1ccc(F)cc1F)C(F)(F)c1ccc(-c2ccc(OCC(F)(F)F)cc2)cn1 .
Completion: > 24 h

----------
Tgt: Cytochrome P450 3A4 (Homo sapiens)
Sequence (P08684 whole entry): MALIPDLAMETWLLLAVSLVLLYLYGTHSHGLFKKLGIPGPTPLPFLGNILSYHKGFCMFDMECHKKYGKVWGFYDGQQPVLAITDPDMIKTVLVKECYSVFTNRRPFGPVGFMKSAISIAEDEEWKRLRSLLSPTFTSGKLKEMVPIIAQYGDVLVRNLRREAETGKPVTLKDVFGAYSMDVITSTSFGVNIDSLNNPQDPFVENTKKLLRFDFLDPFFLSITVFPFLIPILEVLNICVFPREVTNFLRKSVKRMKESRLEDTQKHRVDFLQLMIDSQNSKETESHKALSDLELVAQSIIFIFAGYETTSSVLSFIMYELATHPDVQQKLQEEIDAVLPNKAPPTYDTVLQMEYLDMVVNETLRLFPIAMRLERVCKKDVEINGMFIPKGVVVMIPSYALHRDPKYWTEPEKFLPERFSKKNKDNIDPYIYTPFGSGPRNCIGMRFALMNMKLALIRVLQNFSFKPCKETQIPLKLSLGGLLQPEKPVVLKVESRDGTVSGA
Assay notes: Inhibition of CYP3A4 in human hepatocytes using testosterone as substrate by HPLC/MS/MS method
Measure name: pIC50
Quick note: pIC50 values are minus log10 of concentrations in mol/L.

# example entries with known answers
Compound	Number
O[C@@](Cn1cnnn1)(c1ccc(F)cc1F)C(F)(F)c1ccc(-c2ccc(Cl)cc2)cn1	4.44
C[C@@H](c1ncncc1F)[C@](O)(Cn1cnnn1)c1ccc(F)cc1F	4.49
O[C@@](Cn1cnnn1)(c1ccc(F)cc1F)C(F)(F)c1ccc(Cl)cn1	4.13
N#Cc1ccc(-c2ccc(C(F)(F)C(O)(Cn3cnnn3)c3ccc(F)cc3F)nc2)cc1 (centres undefined)	4.80
O[C@@](Cn1cnnn1)(c1ccc(F)cc1F)C(F)(F)c1ccc(-c2ccc(OC(F)(F)F)cc2)cn1	4.10

Prompt: Provide the documented pIC50 with Cytochrome P450 3A4 (Homo sapiens) as the system for C[C@@H](c1ncncc1F)[C@](O)(Cn1ccnc1)c1ccc(F)cc1F
Completion: 6.10

Prompt: Next up: OC(Cn1cnnn1)(c1ccc(F)cc1F)C(F)(F)c1ccccn1 (centres undefined)
Completion: 3.87

Prompt: Next up: C[C@@H](c1ncncc1F)[C@](O)(Cn1ccnn1)c1ccc(F)cc1F
Completion: 5.10

Prompt: Next up: OC(Cn1cnnn1)(c1ccc(F)cc1F)C(F)(F)c1ccc(OCC(F)(F)F)cn1 (centres undefined)
Completion: 4.14

Prompt: Next up: O[C@@](Cn1cnnn1)(c1ccc(F)cc1F)C(F)(F)c1ccc(-c2ccc(OCC(F)(F)F)cc2)cn1 [OTESECONAZOLE]
Completion: 4.19

Prompt: Next up: C[C@@H](c1ncncc1F)[C@](O)(Cn1cnnc1)c1ccc(F)cc1F
Completion: 4.29

Prompt: Next up: O[C@@](Cn1cnnn1)(c1ccc(F)cc1F)C(F)(F)c1ccc(-c2ccc(C(F)(F)F)cc2)cn1
Completion: 4.27

Prompt: Next up: C[C@@H](c1ncncc1F)[C@](O)(Cn1ncnn1)c1ccc(F)cc1F
Completion: 4.34

----------
System: Candida albicans
Assay notes: Antifungal activity against Candida albicans by broth macrodilution method
Type: functional
Measure name: MIC50 (µg/mL)
Please state the figure in µg/mL; there is no need to write the unit.

# example entries with known answers
Compound	Tgt	Measure name	Number
OC(Cn1cnnn1)(c1ccc(F)cc1F)C(F)(F)c1ccc(OCC(F)(F)F)cn1 (configuration not stated)	Candida albicans	MIC50	0.06
OC(Cn1cnnn1)(c1ccc(F)cc1F)C(F)(F)c1ccccn1 (configuration not stated)	Candida albicans	MIC50	0.25
CCC(C)n1ncn(-c2ccc(N3CCN(c4ccc(OCC5COC(Cn6cncn6)(c6ccc(Cl)cc6Cl)O5)cc4)CC3)cc2)c1=O (configuration not stated)	Candida albicans	MIC50	0.016

Prompt: I would be grateful if you could share the reported MIC50 for C[C@@H](c1ncncc1F)[C@](O)(Cn1ncnn1)c1ccc(F)cc1F .
Completion: 8

Prompt: Next up: OC(Cn1cnnn1)(c1ccc(F)cc1F)C(F)(F)c1ccc(-c2ccc(F)cc2)cn1 (configuration not stated)
Completion: 0.016

Prompt: Next up: C[C@@H](c1ncncc1F)[C@](O)(Cn1cnnn1)c1ccc(F)cc1F
Completion: 1

Prompt: Next up: O[C@@](Cn1cnnn1)(c1ccc(F)cc1F)C(F)(F)c1ccc(Cl)cn1
Completion: 0.25

Prompt: Next up: C[C@@H](c1ncncc1F)[C@](O)(Cn1cncn1)c1ccc(F)cc1F
Completion: 0.06

Prompt: Next up: C[C@@H](c1ncncc1F)[C@](O)(Cn1ccnc1)c1ccc(F)cc1F
Completion: 0.5

----------
# key: entry, value: MIC50
Tested on: Candida albicans
Assay notes: Antifungal activity against Candida albicans by broth macrodilution method
Type: functional

# example entries with known answers
Molecule	MIC50
O[C@@](Cn1cnnn1)(c1ccc(F)cc1F)C(F)(F)c1ccc(-c2ccc(OC(F)(F)F)cc2)cn1	≤ 1 ng/mL
C[C@@H](c1ncncc1F)[C@](O)(Cn1ccnn1)c1ccc(F)cc1F	> 16000 ng/mL
OC(Cn1cnnn1)(c1ccc(F)cc1F)C(F)(F)c1ccc(-c2ccc(C(F)(F)F)cc2)cn1 (stereo not drawn)	≤ 16 ng/mL
O[C@@](Cn1cnnn1)(c1ccc(F)cc1F)C(F)(F)c1ccc(-c2ccc(C(F)(F)F)cc2)cn1	≤ 1 ng/mL
O[C@@](Cn1cnnn1)(c1ccc(F)cc1F)C(F)(F)c1ccc(-c2ccc(Cl)cc2)cn1	≤ 1 ng/mL

Prompt: I would be grateful if you could share the reported MIC50 for O[C@@](Cn1cnnn1)(c1ccc(F)cc1F)C(F)(F)c1ccc(-c2ccc(OCC(F)(F)F)cc2)cn1 [OTESECONAZOLE] .
Completion: ≤ 1 ng/mL

Prompt: Next up: C[C@@H](c1ncncc1F)[C@](O)(Cn1cnnc1)c1ccc(F)cc1F
Completion: > 16000 ng/mL

Prompt: Next up: N#Cc1ccc(-c2ccc(C(F)(F)C(O)(Cn3cnnn3)c3ccc(F)cc3F)nc2)cc1 (stereo not drawn)
Completion: ≤ 16 ng/mL
